Reported pKi against Melanocortin receptor 4 (Homo sapiens), gathered from multiple publications, appears below.
Sequence (P32245 whole entry): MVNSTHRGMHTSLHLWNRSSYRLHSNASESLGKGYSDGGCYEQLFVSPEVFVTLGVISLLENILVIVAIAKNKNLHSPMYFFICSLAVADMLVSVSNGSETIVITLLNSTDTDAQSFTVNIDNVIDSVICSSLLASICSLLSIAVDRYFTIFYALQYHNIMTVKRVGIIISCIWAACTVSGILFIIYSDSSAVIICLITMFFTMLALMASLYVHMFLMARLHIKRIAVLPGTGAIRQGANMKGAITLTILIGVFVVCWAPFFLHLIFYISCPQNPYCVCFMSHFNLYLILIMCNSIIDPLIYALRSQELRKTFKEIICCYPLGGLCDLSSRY
pKi is a log-scale quantity: -log10 of the concentration expressed in molar.

Example compounds with recorded pKi:
{"compound": "CC(NC1CCCNC1)c1ccccc1N1CCN(C(=O)[C@@H](Cc2ccc(Cl)cc2)NC(=O)CC2NCCc3ccccc32)CC1 (stereo partly specified)", "pKi": 8.20}
{"compound": "CC(C)N1C[C@H](C(=O)N2CCN(C3(CNCc4ncc[nH]4)CCCCC3)CC2)[C@@H](c2ccc(Cl)cc2)C1", "pKi": 6.25}
{"compound": "CS(=O)(=O)N1CCCc2cccc(N3CCN(C(=O)C(Cc4ccc(Cl)cc4)NC(=O)[C@H]4Cc5ccccc5CN4)CC3)c21 (stereo partly specified)", "pKi": 6.05}
{"compound": "CC(N[C@H]1CCNC1)c1ccccc1N1CCN(C(=O)[C@@H](Cc2ccc(Cl)cc2)NC(=O)[C@H]2Cc3ccccc3CN2)CC1 (stereo partly specified)", "pKi": 7.89}
{"compound": "CC(C)N1C[C@@H](C(=O)N2CCN(c3ccccc3CNCCN)CC2)[C@H](c2ccc(Cl)cc2)C1", "pKi": 6.64}
{"compound": "Cc1ccc(N2CCN(C(=O)[C@H]3[C@@H](c4ccc(Cl)cc4)CCN3C(C)C)CC2)c([C@@H](N)C(C)C)c1", "pKi": 6.96}
{"compound": "COc1cc(Cl)ccc1C[C@H](C)C(=O)N1CCN(c2ccc(C(F)(F)F)cc2[C@@H](N)CC(C)C)CC1", "pKi": 7.51}
{"compound": "CC(C)C[C@H](NS(C)(=O)=O)c1cc(C(F)(F)F)ccc1N1CCN(C(=O)[C@@H]2CN(C(C)C)C[C@H]2c2ccc(Cl)cc2)CC1", "pKi": 7.06}
{"compound": "COc1cccc(CNCC2(N3CCN(C(=O)[C@H]4CN(C(C)C)C[C@@H]4c4ccc(Cl)cc4)CC3)CCCCC2)c1", "pKi": 7.52}
{"compound": "CC(C)C[C@H](NC(=O)C1CNC1)c1cc(C(F)(F)F)ccc1N1CCN(C(=O)[C@@H]2CN(C(C)C)C[C@H]2c2ccc(Cl)cc2)CC1", "pKi": 7.74}

What pKi value was documented for this compound, COCC(COC)N1C[C@@H](C(=O)N2CCN(c3ccc(C)cc3[C@@H](N)C(C)C)CC2)[C@H](c2ccc(Cl)cc2)C1 ?
6.70

What pKi value was documented for this compound, CC(C)C(N)c1cc(C(F)(F)F)ccc1N1CCN(C(=O)CCc2ccc(Cl)cc2Cl)CC1 (stereo unspecified) ?
6.85

What pKi value was documented for this compound, CCN(CC)CC(c1ccccc1F)N1CCN(C(=O)[C@@H](Cc2ccc(Cl)cc2)NC(=O)C2Cc3ccccc3C(C)(C)N2)CC1 (stereo partly specified) ?
8.24
